test-system: BoNT/ALC
experimental-details: confirmation, biochemical, FRET, cleavage-site specific substrates (AID 651691)
run-conditions: FRET protease cleavage assay, BoNT/A LC or LF
Reported IC50 values follow for various compounds

Before answering, review these 3 worked examples.
• COc1ccc(-c2cn3nc(-c4ccccc4)c(-c4ccccc4)nc3n2)cc1 = 500 nM
• COc1ccc(C2CC(c3cccs3)=NN2c2nc(C)c(C(C)=O)s2)cc1OC (centres undefined) = 1300 nM
• Clc1ccc(-c2cn3nc(-c4ccccc4)c(-c4ccccc4)nc3n2)cc1 = 700 nM

Kindly consider the entry below.
Record request: IC50 value, item `c1ccc(-c2cn3nc(-c4ccccc4)c(-c4ccccc4)nc3n2)cc1`
500 nM
